Reference source for all entries: PubChem BioAssay (NCI)

assayInfo: NCI Yeast Anticancer Drug Screen. Data for the sgs1 mgt1 strain (AID 161);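 also: 0% = growth of cultures given vehicle only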
settings: S. cerevisiae sgs1 mgt1 strain, at 50.0 µM, hits give high values
Compounds without any hit were thinned out: in the full panel of roughly 79,000, 15% have a hit.
recordedMetric: growth inhibition (%)
Give the value in % but do not write % after it.

// field: growth inhibition; key: COc1ccc(C2=C(N)c3cc(OC)ccc3C2=O)cc1 ; value = 33

growth inhibition measured on CC(C)(C)C1COC(c2ccccc2)(c2ccccc2)C1 (configuration not stated) = 8.7

compound N#Cc1ncn(CCO)c1N , growth inhibition observed: 3.3

Kindly note the recorded growth inhibition for C=CCCCCCCCCCCCCCCCCC , which is -13.3

The compound C=C(C)C(CCC)(C(=O)OCC)C(=O)OCC showed growth inhibition equal to 12.6

Short answer for O=C(COc1ccc(Cl)cc1Cl)Nc1ccc2ccccc2c1S(=O)(=O)O : growth inhibition was 12.5

The value of growth inhibition measured for the compound O=[N+]([O-])c1cccc(C2CC(c3ccccc3)=NN2c2ccccc2)c1 (configuration not stated) turned out to be 0.25

Documented growth inhibition of O=C(Nc1ccc(Cl)cc1)Nc1nnc2nc(C3(c4nc5nnc(NC(=O)Nc6ccc(Cl)cc6)n5[nH]c4=O)Cc4ccccc4C3=O)c(=O)[nH]n12 : 8.3

So for COC1OC(COS(=O)(=O)c2ccc(C)cc2)C2OC(C)(C)OC2C1OS(=O)(=O)c1ccc(C)cc1 (configuration not stated) , the logged growth inhibition turned out to be -4.4

Reported growth inhibition ( CS(=O)(=O)OC1C(OC(=O)c2ccccc2)OC(COC(=O)c2ccccc2)C1OC(=O)c1ccccc1 (configuration not stated) ) = 4.9

According to the records, this compound COc1cc(C#N)cc(OC)c1OC displays growth inhibition of 2.85

Item: O=C1CN(c2cccc(C(F)(F)F)c2)C(=O)CN1/N=C/c1ccc(O)c(O)c1 | growth inhibition: -5.3

====

Could you please report measured growth inhibition for the items listed next?
assayInfo: NCI Yeast Anticancer Drug Screen. Data for the mec2-1 strain (AID 157)
settings: S. cerevisiae mec2-1 strain, at 50.0 µM, hits give high values
The panel holds about 79,000 compounds, 15% with a hit somewhere; the sample as a whole holds those more often.
# value in %; strip the unit string

CCSc1nc(N)c2c(-c3ccc(OC)c(OC)c3)c3c(nc2n1)CCCC3 has a reported growth inhibition of -17.2

Summary for this compound, Cc1nc(/N=C(/N)N(C)C)[nH]c(=O)c1C : growth inhibition is -27.6

O=C(OC1C#CCSCC#C/C=C\1)c1cnc2ccccc2n1 (stereo not given) has a reported growth inhibition of -13.4

// N#Cc1cnn2ccn(C3OC(CO)C(O)C3O)c12 (stereo not given) : growth inhibition value = -14.2

Value of measured growth inhibition for the entry O=C(O)C(Cl)C(Cl)c1ccc(Cl)cc1 (stereo not given) : 7.15

Looking up CCCN=C1NS(=O)(=O)c2ccccc21 , I see its growth inhibition listed as -14.8

// growth inhibition lookup, compound = CCCCCCCCCCCCCCCCCCC(CO)CO , result: -20.6

Looking up CCNC(=S)N/N=C/c1cc(OC)ccc1O , I see its growth inhibition listed as 23.4

Lookup result for COc1cc(NCCCN(CC(C)C)CC(C)C)c2ncccc2c1Cl ; measured growth inhibition: 26.1

Looking up COc1ccc(NC(=O)NNS(=O)(=O)c2ccc(C)cc2)cc1 , I see its growth inhibition listed as 6.15

// field: growth inhibition; key: Fc1cc(F)c2c(c1)Nc1cc(F)cc(F)c1S2 ; value = 21.6

CCCCCCCSCC1OC(n2cnc3c(N)ncnc32)C(O)C1O (stereo not given) has a reported growth inhibition of 11.1

Quick note, growth inhibition for FC(F)(F)c1cccc(N=Cc2ccc(C=Nc3cccc(C(F)(F)F)c3)cc2)c1 landed at -9.2

The compound CN(C(=O)c1ccncc1)c1ccccc1 showed growth inhibition equal to -33.1

# compound O=c1[nH]cc(COCCO)c(=O)[nH]1 ; its growth inhibition = -2.8

// field: growth inhibition; key: CCCCCCCC(=O)NN(Cn1c(=S)sc2ccccc21)Cn1c(=S)sc2ccccc21 ; value = 9.25

Entry O=c1c(=[n+]2ccc(=C([O-])c3ccccc3)cc2)/c(=N/S(=O)(=O)c2ccccc2)c(=O)c2ccccc12 ; growth inhibition = 33.1

Value of measured growth inhibition for the entry CC(=O)N=C1N(/C=C2\C(=O)Oc3ccccc3C2=O)C(=O)/C(=C/c2ccc3c(c2)OCO3)N1C : -5.55

The value of growth inhibition measured for the compound CC(=O)Oc1cccc2c1C(=O)C1CC(O)C3(C=O)OC(C)(C)OC2(C)C13 (stereo not given) turned out to be -2.6

Documented growth inhibition of O=C(O)COCC(=O)N(CCOCCN(Cc1ccccc1)C(=O)COCC(=O)O)Cc1ccccc1 : 0.75
